- target: CYP2C19 (Homo sapiens, UniProt P33261)
- Sequence (P33261 whole entry): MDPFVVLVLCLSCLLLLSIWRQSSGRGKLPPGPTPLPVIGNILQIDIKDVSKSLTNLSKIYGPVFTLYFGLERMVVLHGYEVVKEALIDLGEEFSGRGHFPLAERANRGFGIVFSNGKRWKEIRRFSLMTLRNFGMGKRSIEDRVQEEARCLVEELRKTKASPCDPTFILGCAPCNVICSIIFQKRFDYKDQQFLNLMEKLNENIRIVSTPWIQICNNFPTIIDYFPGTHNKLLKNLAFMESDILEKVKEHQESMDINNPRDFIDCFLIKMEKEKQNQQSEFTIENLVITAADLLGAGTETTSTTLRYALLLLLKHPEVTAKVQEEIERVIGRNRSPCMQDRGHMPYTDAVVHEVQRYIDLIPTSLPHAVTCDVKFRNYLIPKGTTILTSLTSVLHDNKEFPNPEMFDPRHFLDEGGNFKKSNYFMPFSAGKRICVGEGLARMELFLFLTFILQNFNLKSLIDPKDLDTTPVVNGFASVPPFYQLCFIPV
- measurement notes: Activity of human recombinant CYP2C19 assessed as enzyme-mediated drug metabolism at 10 uM after 120 mins by LC-MS/MS analysis in presence of NADPH
- Assay type: ADME
- condition summary: read-out: Compound recovery
measure: remaining at 2 h, 10 µM (%)

> print(dat)
                                        smi                                  target  test.value
1  CCOC(=O)N[C@@H]1CC[C@@H]2[C@@H](C1)C[C@H]1C(=O)O[C@H](C)[C@H]1[C@H]2/C=C/c1ccc(-c2cccc(F)c2)cn1  CYP2C19 (Homo sapiens, UniProt P33261)        94.1
